# EXPERIMENT DESCRIPTION: viability loss of HPDE-C7K cells – cell-based, fluorescence, HTS, primary screen (AID 431);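 further: 0% = DMSO solvent wells and 100% = doxorubicin-treated wells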
# TEST PARAMETERS: HPDE-C7K KRASV12 cells, Alamar Blue viability, 48 h; at 10 µM; hits give high values
The campaign covered roughly 63,000 compounds. About 1,100 (1.7%) were called active. The sample holds actives, similar compounds and a random draw of the others, so the mix is not that of the screen. Entries with a potency or affinity are not part of this list.
List of cytotoxicity values.

Examples from the recorded data:
INSERT INTO measurements (compound, endpoint_result) VALUES
  ('CCOC(=O)C(C)Oc1cccc2c(=O)n(CC(=O)NCc3ccc4c(c3)OCO4)ccc12 (stereo not given)', '38.8% (inactive)'),
  ('CCOc1ccc(OCC)c(NC(=O)CN(c2ccc(C)cc2)S(=O)(=O)c2c(C)noc2C)c1', '-6.3% (inactive)'),
  ('CCCCn1c(SCC(=O)Nc2cc(C)on2)nc2ccccc2c1=O', '-8.1% (inactive)'),
  ('COc1ccc(O)c(-c2cc(-c3cccs3)[nH]n2)c1', '34.1% (inactive)'),
  ('Fc1cc2ncn(Cc3ccccc3)c2cc1F', '-20.3% (inactive)'),
  ('CC(=O)Nc1ccc(S(=O)(=O)N2CCC(NC(C)=O)(c3cccc(F)c3)CC2)cc1', '8% (inactive)');

What value of cytotoxicity has been recorded for this entry: O=C(Nc1nncs1)c1ccc(N2C(=O)C3C4C=CC(C4)C3C2=O)cc1 (stereo not given)
10.1% (inactive)

What value of cytotoxicity has been recorded for this entry: Cc1cc(NC(=O)CSc2nc(-c3ccccc3)cs2)no1
-7.6% (inactive)

What value of cytotoxicity has been recorded for this entry: CCCn1c(NC(=O)c2ccccc2)nc2ccccc21
-14.1% (inactive)

What value of cytotoxicity has been recorded for this entry: O=C(c1cccnc1)N1CCC(c2nc3ccccc3[nH]2)CC1
-11.8% (inactive)

What value of cytotoxicity has been recorded for this entry: CC1=Nn2c(nnc2-c2ccco2)SC1
-17.8% (inactive)

What value of cytotoxicity has been recorded for this entry: CCCn1c(NCc2ccco2)nc2ccccc21
-3.7% (inactive)

What value of cytotoxicity has been recorded for this entry: Cc1c(NC(=O)c2ccccc2N)cccc1C(=O)O
6.3% (inactive)

What value of cytotoxicity has been recorded for this entry: Cn1c(=O)c2c(nc(NCCCN3CCOCC3)n2Cc2ccc(Cl)cc2Cl)n(C)c1=O
0.9% (inactive)

What value of cytotoxicity has been recorded for this entry: Cc1cc(C)n(-c2nnc(C)n2/N=C/c2ccccc2OCc2ccccc2Cl)n1
43.9% (inactive)

* * *

# EXPERIMENT DESCRIPTION: viability loss of HPDE-C7K cells – cell-based, fluorescence, HTS, primary screen (AID 431);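 further: 0% = DMSO solvent wells and 100% = doxorubicin-treated wells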
# TEST PARAMETERS: HPDE-C7K KRASV12 cells, Alamar Blue viability, 48 h; at 10 µM; hits give high values
Hit rate of the full screen: of about 63,000 compounds, about 1,100 (1.7%) were called active. The full list was thinned out, with actives kept by preference. Entries with a potency or affinity are not part of this list.
List of cytotoxicity values.

INSERT INTO assay_data (molecule, endpoint_result) VALUES
  ('Cc1ccc(S(=O)(=O)NCCC(=O)Nc2nnc(C3CC3)s2)cc1C', '5.5% (inactive)'),
  ('CCOC(=O)C1=C(CSc2nc(-c3ccncc3)ccc2C#N)OC(N)=C(C#N)C1c1cccnc1 (configuration not stated)', '20% (inactive)'),
  ('CCOc1ccc2[nH]c(=O)c(CN(Cc3ccco3)C(=O)c3cccc(F)c3)cc2c1', '82% (active)'),
  ('COCCSc1ccccc1C(=O)Nc1cc(C)on1', '85.8% (active)'),
  ('CCOC(=O)C1=C(CSc2nc3c(cc2C#N)CN(C)CC3)OC(N)=C(C#N)C1c1ccccc1 (configuration not stated)', '14.3% (inactive)'),
  ('Cc1ccc(S(=O)(=O)NC(=O)NC(C)(C)C)cc1', '12.4% (inactive)'),
  ('CCCCOc1ccc(C(=O)N2CCC(C)CC2)cc1', '-4.4% (inactive)'),
  ('O=C1CSC(=S)N1c1cccnc1', '-10.8% (inactive)');

What value of cytotoxicity has been recorded for this entry: O=C(NC1CC2CCCC(C1)N2C1CC1)NC12CC3CC(CC(C3)C1)C2 (configuration not stated)
5.1% (inactive)

What value of cytotoxicity has been recorded for this entry: O=C(CCCn1c(=S)[nH]c2ccccc2c1=O)NCc1ccco1
-11% (inactive)

What value of cytotoxicity has been recorded for this entry: O=C(Cn1c(=O)n2ncnc2c2c3c(sc21)CCCC3)c1ccccc1
-20.6% (inactive)

What value of cytotoxicity has been recorded for this entry: O=c1n(Cc2ccccc2Cl)c2sc3c(c2c2ncnn12)CCCC3
-12.2% (inactive)

* * *

# EXPERIMENT DESCRIPTION: viability loss of HPDE-C7K cells – cell-based, fluorescence, HTS, primary screen (AID 431);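 further: 0% = DMSO solvent wells and 100% = doxorubicin-treated wells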
# TEST PARAMETERS: HPDE-C7K KRASV12 cells, Alamar Blue viability, 48 h; at 10 µM; hits give high values
Out of some 63,000 compounds screened, about 1,100 (1.7%) were called active. This is one part of a sample in which actives are shown more often than they occur. Results with a measured potency or affinity are listed apart.
List of cytotoxicity values.
Use % as the unit, but write only the number.

Examples from the recorded data:
INSERT INTO measurements (chemical_structure, measure_name, endpoint_result) VALUES
  ('Cc1cccc2cc(C#N)c(SCC(=O)N3CC(=O)Nc4ccccc43)nc12', 'cytotoxicity', 65),
  ('Cc1ccc(C)c(OCC(=O)Nc2nonc2NC(=O)COc2cc(C)ccc2C)c1', 'cytotoxicity', 74.3),
  ('COc1ccc(-c2c3c(=O)n(C)c(=O)n(C)c3cn2Cc2ccccn2)cc1', 'cytotoxicity', 7),
  ('CCc1nnc(NC(=O)CSc2nnc(COc3ccccc3)n2-c2ccc(C)cc2)s1', 'cytotoxicity', 2.3),
  ('O=S(=O)(c1ccc(F)cc1)N1CCN(c2ncnc3c2cnn3-c2ccccc2)CC1', 'cytotoxicity', -6.5);

What value of cytotoxicity has been recorded for this entry: Cc1cccc(C)c1OCC(=O)Nc1cccc(NC(=O)c2ccco2)c1
2.8

What value of cytotoxicity has been recorded for this entry: CCN(CC)CCCOc1nc(C)nc2c1oc1ccccc12
9.8

What value of cytotoxicity has been recorded for this entry: O=C(O)c1ccc(N2CCCCC2)cc1
-1.2

What value of cytotoxicity has been recorded for this entry: Oc1cccc(Nc2ncnc3ccccc23)c1
4.2

What value of cytotoxicity has been recorded for this entry: Cc1ccc(C)c(OCC(=O)Nc2ccc3c(c2)OCO3)c1
-3.1

* * *

# EXPERIMENT DESCRIPTION: viability loss of HPDE-C7K cells – cell-based, fluorescence, HTS, primary screen (AID 431);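 further: 0% = DMSO solvent wells and 100% = doxorubicin-treated wells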
# TEST PARAMETERS: HPDE-C7K KRASV12 cells, Alamar Blue viability, 48 h; at 10 µM
About 1,100 (1.7%) of roughly 63,000 compounds were called active.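 The calls were made as follows: active = compounds whose percent cytotoxicity in the single-dose primary screen, scaled between solvent and toxic-drug controls, exceeds 50; inactive = the rest.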 Only a selection was taken, and actives are over-represented in it overall. Potency and affinity values are given separately.
Valid outcomes are listed here; reply with one: label 1 for active, label 0 for inactive

INSERT INTO results (molecule, class_label) VALUES
  ('CC(C)CC(NC(=O)C1CCC(C)CC1)C(=O)Nc1ccccn1 (stereo unspecified)', 'label 0');

Pending molecule:
Record request — test call for CCN(CCCNC(=O)CCCn1c(=O)[nH]c2ccccc2c1=O)c1cccc(C)c1
label 0

* * *

# EXPERIMENT DESCRIPTION: viability loss of HPDE-C7K cells – cell-based, fluorescence, HTS, primary screen (AID 431);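 further: 0% = DMSO solvent wells and 100% = doxorubicin-treated wells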
# TEST PARAMETERS: HPDE-C7K KRASV12 cells, Alamar Blue viability, 48 h; at 10 µM; hits give high values
In all, about 63,000 compounds went through this assay and about 1,100 (1.7%) were called active. The full list was thinned out, with actives kept by preference. Potency and affinity values are given separately.
MEASURE NAME: cytotoxicity (%)
Use % as the unit, but write only the number.

Examples from the recorded data:
INSERT INTO measurements (molecule, endpoint_result) VALUES
  ('CCCCn1nnnc1NCc1cccc(OC)c1OC', 12.8),
  ('CCc1nnc(NC(=O)CSc2nc3c(cc2C#N)CCC3)s1', 33.4),
  ('CCCC(C(=O)NCc1ccc(OC)cc1)N(Cc1ccco1)C(=O)c1snc(C(N)=O)c1N (stereo unspecified)', -4),
  ('CCN(Cc1cc2ccccc2[nH]c1=O)C(=O)C1CCCCC1', -7.8),
  ('CCOC(=O)c1oc2c(C)c(O)ccc2c(=O)c1-c1nncn1-c1ccccc1', -6.3);

Moving on to another molecule below.
What value of cytotoxicity has been recorded for this entry: O=C(O)C1CCCCC1C(=O)Nc1ccc(Cl)cc1Cl (stereo unspecified)
-0.5

* * *

# EXPERIMENT DESCRIPTION: viability loss of HPDE-C7K cells – cell-based, fluorescence, HTS, primary screen (AID 431);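 further: 0% = DMSO solvent wells and 100% = doxorubicin-treated wells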
# TEST PARAMETERS: HPDE-C7K KRASV12 cells, Alamar Blue viability, 48 h; at 10 µM
Out of some 63,000 compounds screened, about 1,100 (1.7%) were called active.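 How the source made its calls: active means compounds whose percent cytotoxicity in the single-dose primary screen, scaled between solvent and toxic-drug controls, exceeds 50; inactive means the rest.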 The sample as a whole holds a higher share of actives than the screen did. Potency and affinity values are given separately.
Valid outcomes are listed here; reply with one: active, inactive

These solved cases illustrate the format of a correct answer.
INSERT INTO measurements (compound, class_label) VALUES
  ('COCC(C)NC(=O)CCS(=O)(=O)c1nc(-c2ccc(OC)cc2)cc(C(F)(F)F)n1 (stereo not drawn)', 'active'),
  ('CC(C)N=c1cc2n(-c3ccc(Cl)cc3)c3ccccc3nc-2cc1Nc1ccc(Cl)cc1', 'active'),
  ('CCc1[nH]nc2c1C(c1ccc(Br)s1)C(C#N)=C(N)O2 (stereo not drawn)', 'inactive'),
  ('COc1ccc(-c2cc(C(F)(F)F)nc(SCCC(=O)NCc3ccco3)n2)cc1', 'inactive'),
  ('Cc1ccc(S(=O)(=O)Cn2nnnc2CN2CCCC3(CCCCC3)C2)cc1', 'inactive'),
  ('Cn1c(CNc2ccc(Cl)cc2)nc2ccccc21', 'inactive'),
  ('CCOC(=O)CS(=O)(=O)c1nc(-c2ccccc2)cc(C(F)(F)F)n1', 'inactive');

Pending compound:
Record request — test call for CCOC(=O)c1cnn2c(C)cc(-c3ccc(F)cc3)nc12
inactive
